Test system: Staphylococcus aureus (ATCC29213)
protocol_details: Microtitre plate assay, IC90 for bacterial growth, Staphylococcus aureus strain
Assay type: cell-based
condition_description: 90% inhibitory concentration for bacterial growth, 24 hours at 37° C., read-out: IC90 (μg/ml) STA B29213
quantity_kind: IC90 (µg/mL)

Worked cases, IC90 given:
[[record]]
compound = "OC1(C(c2ccc(Cl)cc2)c2cc3cc(Br)ccc3nc2N2CCOCC2)CCN(CCc2ccccc2)CC1 (centres unmarked)"
quantity_kind = "IC90"
quantitative_readout = 6.81

[[record]]
compound = "COc1nc2ccc(Br)cc2cc1C(c1ccc(SC)cc1)C1(O)CCNCC1 (centres unmarked)"
quantity_kind = "IC90"
quantitative_readout = 7.58


A. COc1nc2ccc(Br)cc2cc1C(c1ccc(C#N)cc1)C1(O)CCN(Cc2ccccc2)CC1 (centres unmarked)
B. O=c1[nH]c2ccc(Br)cc2cc1C(c1ccc(Cl)cc1)C1(O)CCN(Cc2ccccc2)CC1 (centres unmarked)
[Q] Please indicate which item has the smaller measured IC90: A versus B Could you answer with the label of the item you picked?
[A] B

---

Test system: Mycobacterium smegmatis (ATCC607)
protocol_details: In-vitro anti-bacterial activity against strain M. smegmatis ATCC607 (Alamar Blue growth inhibition)
Format: cell-based
condition_description: 90% inhibitory concentration for bacterial growth, 48 hours at 37° C.
quantity_kind: IC90 (μg/ml) MSM 607 (µg/mL)

[[record]]
molecule = "COc1nc2ccc(Br)cc2cc1C(c1ccccc1)C1(O)CCN(C)CC1 (stereo not shown)"
experimental_target = "Mycobacterium smegmatis (ATCC607)"
quantitative_readout = 11.09


1. COc1nc2ccc(-c3cccnc3)cc2cc1C(c1ccc(Cl)cc1)C1(O)CCN(C)CC1 (racemic)
2. COc1nc2ccc(-c3cccnc3)cc2cc1C(c1ccc(Cl)cc1)C1(O)CCNCC1.O=C(O)/C=C/C(=O)O (racemic)
3. COc1nc2ccc(Br)cc2cc1C(c1ccc(Cl)cc1)C1(O)CCN(CCc2ccccc2)CC1.O=C(O)/C=C/C(=O)O (stereo not shown)
[Q] Arrange these molecules by their IC90 (μg/ml) MSM 607, starting with the largest number. Sort the labels as requested; that list is your answer.
[A] 1, 3, 2
(1: 6.70 µg/mL, 3: 4.49 µg/mL, 2: 3.05 µg/mL)

1. COc1nc2ccc(Br)cc2cc1C(c1ccc(Cl)cc1)C1(O)CCN(Cc2ccccc2C)CC1 (stereo not shown)
2. COc1nc2ccc(Br)cc2cc1C(c1ccccc1Cl)C1(O)CCNCC1.O=C(O)/C=C/C(=O)O (racemic)
3. COc1nc2ccc(C(C)C)cc2cc1C(c1ccc(Cl)cc1)C1(O)CCN(CCc2ccccc2)CC1.O=C(O)/C=C/C(=O)O (racemic)
[Q] Please put the entries in order of rising IC90 (μg/ml) MSM 607. Sort the labels as requested; that list is your answer.
[A] 3, 1, 2
(3: 0.63 µg/mL, 1: 3.16 µg/mL, 2: 6.06 µg/mL)

---

Tested on: Staphylococcus aureus (ATCC29213)
protocol_details: Microtitre plate assay, IC90 for bacterial growth, Staphylococcus aureus strain
Assay type: cell-based
condition_description: 90% inhibitory concentration for bacterial growth, 24 hours at 37° C., read-out: IC90 (μg/ml) STA B29213
quantity_kind: IC90 (µg/mL)

Worked cases, IC90 given:
[[record]]
molecule = "CCn1c(=O)c(C(c2ccc(Cl)cc2)C2(O)CCN(Cc3ccccc3)CC2)cc2cc(-c3cccnc3)ccc21 (stereo not drawn) [Compound 3]"
quantitative_readout = 7.1

[[record]]
molecule = "COc1nc2ccc(Br)cc2cc1C(c1ccc(Cl)cc1)C1(O)CCN(C2CCN(Cc3ccccc3)CC2)CC1 (stereo not drawn) [Compound 15]"
quantitative_readout = 11.3

[[record]]
molecule = "COc1nc2ccc(Br)cc2cc1C(c1ccc(Cl)cc1)C1(O)CCNCC1 (stereo not drawn) [Compound 14]"
quantitative_readout = 11.6

[[record]]
molecule = "COc1nc2ccc(Br)cc2cc1C(c1ccc(Cl)cc1)C1(O)CCN(Cc2cccc(F)c2)CC1 (stereo not drawn) [Compound 17]"
quantitative_readout = 14.3

[[record]]
molecule = "COc1nc2ccc(Br)cc2cc1C(c1ccc(S(C)(=O)=O)cc1)C1(O)CCN(Cc2ccccc2)CC1 (stereo not drawn) [Compound 20]"
quantitative_readout = 7.5

[[record]]
molecule = "COc1nc2ccc(Br)cc2cc1C(c1ccccc1)C1(O)CCN(CCc2ccccc2)CC1 (stereo not drawn) [Compound 5]"
quantitative_readout = 8.42


P. COc1nc2ccc(C(=O)Nc3cccnc3)cc2cc1C(c1ccc(Cl)cc1)C1(O)CCN(Cc2ccccc2)CC1 (stereo not drawn) [Compound 24]
Q. COc1nc2ccc(Br)cc2cc1C(c1ccc(Cl)cc1)C1(O)CCN(C(=N)N)CC1 (stereo not drawn) [Compound 25]
R. O=c1[nH]c2ccc(Br)cc2cc1C(c1ccc2ccccc2c1)C1(O)CCN(Cc2ccccc2)CC1 (stereo not drawn) [Compound 80]
S. COc1nc2ccc(C#N)cc2cc1C(c1ccc(Cl)cc1)C1(O)CCN(Cc2ccccc2)CC1 (stereo not drawn) [Compound 13]
[Q] Please put the entries in order of rising IC90. Sort the labels as requested; that list is your answer.
[A] Q, R, P, S

P. COc1nc2ccc(Br)cc2cc1C(c1ccc(Cl)cc1)C1(O)CCN(C)CC1 (stereo not drawn) [Compound 16]
Q. CCn1c(=O)c(C(c2ccc(Cl)cc2)C2(O)CCN(Cc3ccccc3)CC2)cc2cc(Br)ccc21 (stereo not drawn) [Compound 2]
[Q] Given the listed records, identify the one among P and Q with higher IC90. Could you answer with the label of the item you picked?
[A] Q

All values here come from patent US9133167B2.
